- System: NCI/ADR-RES ovarian
- Protocol Text: NCI tumour cell line growth inhibition, 48 h

Molecule	TGI
CO[C@@]12C[C@@H](C)C3=CCC(C)=C3CC1=C(C)C(=O)O2	> 100 µM
NC(N)=NS(=O)(=O)c1ccc(NNc2c3ccccc3nc3c(C(=O)Nc4ccc(S(=O)(=O)Nc5ncccn5)cc4)cccc23)cc1	> 100 µM
COc1cccc(CC(C)=C(c2ccc(OCCN(C)C)cc2)c2ccc(OCCN(C)C)cc2)c1	8.32 µM
CCO/C(O)=C(/C(=N)N1CCOCC1)C(=O)Nc1ccc(F)cc1	> 100 µM
CC(C)(C)OC(=O)N(CCCCN(CCCNC(=O)C(F)(F)F)C(=O)OC(C)(C)C)CCCNC(=O)C(F)(F)F	> 100 µM
COc1ccc(C2SC(N)=Nc3c2c(C)nn3C(=O)c2ccncc2)cc1OC (stereo unspecified)	> 10 µM
N#C[C@H](c1ccccn1)c1nc2ccccc2nc1Cl	> 100 µM
CN1CCN(C2CCN(C(=O)Nc3cc(Oc4ccc(NC(=O)C5(C(=O)Nc6ccc(F)cc6)CC5)c(F)c4)ccn3)CC2)CC1	> 10 µM
Fc1ccc2c(c1)nc1n2C(c2c(Cl)cccc2Cl)SC1 (stereo unspecified)	27.7 µM
CN=C(n1ccnc1)n1ccnc1	> 100 µM
Cc1ccc(/C=N/Nc2cc(C)c3cccc(C)c3n2)s1	22.5 µM
COC(=O)c1ccc2c(c1)nc(NC(=O)c1ccccc1)n2CCCc1ccccc1	> 100 µM
COc1ccc(OC)c2c1[nH]c(=O)c1c3ccccc3cn21	3.38 µM
Oc1ccc(Nc2ncnc3c2sc2ncccc23)cc1	> 35.2 µM
S=C(Nc1ccc(Cl)cc1)Nc1ccc(-c2nc3ccccc3s2)cc1	36.6 µM
Cc1ccnc2[nH]c(-c3ccc4ccccc4c3)cc(=O)c12	7.14 µM
CC(=O)OC1COC(Oc2c(C)c3c4c(c2O)[C@@H](C)CC[C@@H]4[C@@H](C)C[C@H]3C=C(C)C)C(O)C1OC(C)=O (stereo partly specified)	23.7 µM
C=C1C(=O)OC2CC(C)C(C(CC(C)=O)OC(C)=O)=CCC12 (stereo unspecified)	> 45 µM
O=C(Nc1ccc2ncccc2c1)Nc1ccc2ncccc2c1	> 100 µM
C[N+](C)(C)CC1CCCc2ccccc2C1=O (stereo unspecified)	54 µM
O=[N+]([O-])C[C@@]12O[C@]3(O)C4C5CC(C6C5C3C61)C42 (stereo partly specified)	> 100 µM

====

- Test system: NCI-H226 lung
- Protocol Text: NCI tumour cell line growth inhibition, 48 h
Where a SMILES comes first, the peptide text is derived from it. The star is where a group is joined. Boc = CC(C)(C)OC(=O)*; Bn = c1ccc(C*)cc1

Molecule	System Tested	TGI
O=C1CCC(Cl)=CC2CCCN12 (stereo not drawn)	NCI-H226 lung	> 100 µM
Cc1ccc(S(=O)(=O)c2[nH]cc(/C(=C\C3CCCCC3)[N+](=O)[O-])c2C2CCCCC2)cc1	NCI-H226 lung	9.9 µM
N#Cc1c(N)nc(N2CCOCC2)c(C#N)c1-c1ccncc1	NCI-H226 lung	> 100 µM
O=c1oc2ccc3ccccc3c2cc1-c1nc2ccccc2s1	NCI-H226 lung	> 100 µM
CO[C@@]12C[C@@H](C)C3=CCC(C)=C3CC1=C(C)C(=O)O2	NCI-H226 lung	> 100 µM
COc1cc(/C=C/C(=O)c2ccc(O)c(OC)c2)ccc1O	NCI-H226 lung	46.3 µM
COC(=O)C(CC(C)C)NC(=O)C(C)NC(=O)C(Cc1ccc(OCc2ccccc2)cc1)NC(=O)C(COCc1ccccc1)NC(=O)OC(C)(C)C (stereo not drawn) (Boc-S(Bn)Y(Bn)AL-OMe; configuration not given here)	NCI-H226 lung	> 100 µM
CC1=NN(c2nc(N)nc(/C(C#N)=C\c3ccc([N+](=O)[O-])s3)n2)C(C)(C)C1	NCI-H226 lung	8.18 µM

====

- Test system: SF-539 CNS
- Protocol Text: NCI tumour cell line growth inhibition, 48 h
Each entry below lists one item and its recorded GI50 value.

Smiles Input	GI50
NS(=O)(=O)c1ccc(/C=C/c2ccc(O)c(O)c2)cc1	14.2 µM
COc1cccc(F)c1C(=O)c1cnc(NC2CCN(S(C)(=O)=O)CC2)nc1N	3.68 µM
c1ccc(-c2nnc(-c3ccccn3)s2)nc1	> 100 µM
NC(N)=N/N=C/c1c(-c2ccsc2)nc2sccn12	18.3 µM

====

# key: entry, value: TGI
- System: NCI-H460 lung
- Protocol Text: NCI tumour cell line growth inhibition, 48 h

Compound	TGI
C[n+]1c2ccc(Cl)cc2nc2cc(-c3ccccc3)ccc21	67.3 µM
O=c1oc2ccccc2cc1-c1cc2ccccn2c1	> 100 µM
Oc1ccc(Nc2ncnc3c2sc2ncccc23)cc1	> 100 µM
Cn1c(I)c(C#CCO[Si](C)(C)C(C)(C)C)c(=O)[nH]c1=O	> 100 µM
CC(C)(C)NNC(=O)CCn1[nH]c(=O)c(Cl)c(Cl)c1=O	> 100 µM
O=C(O)c1nnsc1-c1ccc(-c2snnc2C(=O)O)cc1	> 100 µM
Cc1ccc(SC2c3ccc(C)cc3Oc3nc(N)c(C#N)c(N)c32)cc1 (stereo not given)	4.07 µM
CC(C)Cc1ccc(C(C)C(=O)N2CCN(/C=C/c3ccccc3)CC2)cc1 (stereo not given)	32.9 µM
COC(=O)/C=C(\C(=O)OC)C1C(=O)Oc2c(C)c(=O)c3ccccc3n21 (stereo not given)	> 100 µM
CN1CCN(C2CCN(C(=O)Nc3cc(Oc4ccc(NC(=O)C5(C(=O)Nc6ccc(F)cc6)CC5)c(F)c4)ccn3)CC2)CC1	> 10 µM

====

- Test system: HL-60(TB) leukemia
- Protocol Text: NCI tumour cell line growth inhibition, 48 h

Compound	Censoring Operator	TGI / µM
COc1cccc(C(=O)Oc2ccc(OS(=O)(=O)c3ccc(C)cc3)cc2)c1C#N	>	100
CC(C)CCC1CC2C(=O)N(c3ccccc3)C(=O)C2c2[nH]c3ccccc3c21 (stereo not given)	=	5.73
Nc1nn2cc(F)cnc2c1C(=O)Nc1cncc(F)c1N1CCC(C(=O)N2CCN(C3COC3)CC2)CC1	=	0.465
O=P(O)(O)CCP(=O)(O)O	>	100
CC1(C)CC(=O)C(C=NC(=S)c2ccccc2)=C(O)C1	>	100

====

- Test system: HCT-15 colon
- Protocol Text: NCI tumour cell line growth inhibition, 48 h
Recorded Metric: GI50

Compound	Test Value
CO/N=C(/C)c1cccc(Nc2cc(-n3nnc4ccccc43)nc3ccccc23)c1	31800 nM
O=C(Nc1ccc(Br)cc1F)c1cc(F)ccc1O	773 nM
Cc1ccc(SC2c3ccc(C)cc3Oc3nc(N)c(C#N)c(N)c32)cc1 (configuration not stated)	1720 nM
C[N+](C)(C)CC1CCCc2ccccc2C1=O (configuration not stated)	2750 nM
NC(N)=N/N=C/c1c(-c2ccsc2)nc2sccn12	17100 nM
CCN1CCN(C(=O)[C@@]2(C)CC[C@]3(C)CC[C@]4(C)C(=CC(=O)[C@@H]5[C@@]6(C)CC[C@H](OC7C[C@@H](O)[C@@H](O)C(C)O7)C(C)(C)[C@@H]6CC[C@]54C)[C@@H]3C2)CC1 (some centres not stated)	2210 nM
CNCc1ccccc1-c1csc([C@@H](C)Nc2nc(C)nc3cc(OC)c(OC)cc23)c1	1610 nM

====

- Tested on: A498 renal
- Protocol Text: NCI tumour cell line growth inhibition, 48 h
Recorded Metric: TGI (µM)

Smiles Input	Censoring Operator	Test Value
CC1(C)N=C(N)N=C(N)N1c1ccc(CCCCc2ccc(Cl)cc2S(=O)(=O)F)c(Cl)c1	=	18.9
COc1ccc(OC)c2c1[nH]c(=O)c1c3ccccc3cn21	=	3.2
COc1cc(Nc2ncccc2C(=O)NCc2cn(Cc3cccc(Oc4ccccc4)c3)nn2)cc(OC)c1	>	100
O=C(O)COc1ccc2c(=O)c3sc4c(=O)c5ccccc5c(=O)c4c3c(=O)c2c1	=	28.1
CCN(CC)Cc1ccc(C(=S)Nc2ccc(Cl)cc2)s1	=	25.8

====

- Tested on: SR leukemia
- Protocol Text: NCI tumour cell line growth inhibition, 48 h
TGI reference

Compound	System Tested	TGI
O=C(Nc1ccc(Br)cc1F)c1cc(F)ccc1O	SR leukemia	> 100 µM
C/C=C(\C)C(=O)O[C@H]1C=CC(=O)O[C@H]1CCC(=O)[C@H](C)O	SR leukemia	13.2 µM
N#CN/C(N)=N/CO	SR leukemia	72.4 µM
CC1=C(C(=O)Nc2ccc(F)c(Cl)c2)C(c2ccccc2O)NC(=S)N1 (configuration not stated)	SR leukemia	> 50 µM
Cc1cc(C)c2c(n1)sc1c(Nc3ccc(Cl)cc3)ncnc12	SR leukemia	38.6 µM
COC(=O)/C=C(\C(=O)OC)C1C(=O)Oc2c(C)c(=O)c3ccccc3n21 (configuration not stated)	SR leukemia	> 100 µM
COC[C@@H](N=CC(C)(C)C)C(C)C	SR leukemia	> 100 µM
Cc1ccc2c(c1)C(=S)N1CSCC1c1nncn1-2 (configuration not stated)	SR leukemia	> 100 µM
Cc1ccc(S(=O)(=O)Nc2ccccc2C=O)cc1	SR leukemia	86.3 µM
CC(=O)c1ccccc1NP(=O)(c1ccccc1)c1ccccc1	SR leukemia	> 100 µM
COc1cc(C2c3cc4c(cc3OC(N3CCCCC3)C2C)OCO4)cc(OC)c1O (configuration not stated)	SR leukemia	> 44.5 µM
O=C(/C=C/c1ccccc1)Oc1cccc(O)c1	SR leukemia	48.6 µM
